PROCEDURE_TEXT: Study B: drug interaction PK with rifampin
Format: in vivo, human
RECORDED_CONDITIONS: human, plasma, oral, rifampin 600 mg in combination with ubrogepant 100 mg; read-out: Geometric LSM AUC0-t, Test
From the text: Study B (rifampin) had two treatment periods. […] All treatments were received under fasted conditions. Healthy adults aged 19-50 years for Study A and 18-45 years for Study B were eligible to participate. […] For study B, participants had to have a BMI between 18.0 and 30 kg/m^2. Exclusion criteria for both studies included hypersensitivity to any study drug; exposure to hepatitis B virus, hepatitis C virus, or HIV; or use of any drug or substance known to affect CYP enzymes or P-gp.
VALUE_KIND: AUC(0-t) (ng·h/mL)
Please respond with the number in ng·h/mL and leave the unit unwritten.

C[C@@H]1[C@H](c2ccccc2)C[C@H](NC(=O)c2cnc3c(c2)C[C@@]2(C3)C(=O)Nc3ncccc32)C(=O)N1CC(F)(F)F [ubrogepant] yielded AUC(0-t) of 378

###

PROCEDURE_TEXT: Study A: drug interaction PK with verapamil or ketoconazole
Format: in vivo, human
RECORDED_CONDITIONS: human, plasma, oral, ubrogepant 20 mg + ketoconazole 400 mg; read-out: Cmax, mean (SD)
Text: Study A (verapamil and ketoconazole) comprised 3 treatment periods. Healthy adults aged 19-50 years for Study A and 18-45 years for Study B were eligible to participate. […] For study B, participants had to have a BMI between 18.0 and 30 kg/m^2. Exclusion criteria for both studies included hypersensitivity to any study drug; exposure to hepatitis B virus, hepatitis C virus, or HIV; or use of any drug or substance known to affect CYP enzymes or P-gp.
VALUE_KIND: Cmax

C[C@@H]1[C@H](c2ccccc2)C[C@H](NC(=O)c2cnc3c(c2)C[C@@]2(C3)C(=O)Nc3ncccc32)C(=O)N1CC(F)(F)F yielded Cmax of 240 ng/mL

###

PROCEDURE_TEXT: Study B: drug interaction PK with rifampin
Assay type: in vivo, human
RECORDED_CONDITIONS: human, plasma, oral, 100 mg, ubrogepant 100 mg alone; read-out: Geometric LSM Cmax, Reference
VALUE_KIND: Cmax

C[C@@H]1[C@H](c2ccccc2)C[C@H](NC(=O)c2cnc3c(c2)C[C@@]2(C3)C(=O)Nc3ncccc32)C(=O)N1CC(F)(F)F yielded Cmax of 375 ng/mL

###

PROCEDURE_TEXT: Study B: drug interaction PK with rifampin
Assay type: in vivo, human
RECORDED_CONDITIONS: human, plasma, oral, ubrogepant 100 mg + rifampin 600 mg; read-out: AUC0-t, mean (SD)
VALUE_KIND: AUC(0-t) (ng·h/mL)
Please respond with the number in ng·h/mL and leave the unit unwritten.

C[C@@H]1[C@H](c2ccccc2)C[C@H](NC(=O)c2cnc3c(c2)C[C@@]2(C3)C(=O)Nc3ncccc32)C(=O)N1CC(F)(F)F yielded AUC(0-t) of 396

###

PROCEDURE_TEXT: Study A: drug interaction PK with verapamil or ketoconazole
Type: in vivo, human
RECORDED_CONDITIONS: human, plasma, oral, 20 mg, ubrogepant 20 mg alone; read-out: Apparent terminal t1/2, mean (SD) (converted)
VALUE_KIND: half-life (h)
Please respond with the number in h and leave the unit unwritten.

C[C@@H]1[C@H](c2ccccc2)C[C@H](NC(=O)c2cnc3c(c2)C[C@@]2(C3)C(=O)Nc3ncccc32)C(=O)N1CC(F)(F)F yielded half-life of 2.5
